# assay_explanation: AUClast in ICR mouse at 20 mg/kg, po measured for 24 hrs byb LC-MS/MS analysis
# Format: ADME, organism-based
# measurement_parameters: in vivo
outcome_measure: AUC(0-t) at 24 h (ng·h/mL)
// note: answer is a bare numeric in ng·h/mL

Quickly give me recorded AUC(0-t) at 24 h for "N#Cc1ccc(Cn2nc(-c3cc(Cl)c(NCCCO)nc3F)c3ccccc3c2=O)cc1"
61.4

====

# assay_explanation: Cytotoxicity against human HepG2.2.15 cells harboring HBV genome incubated for 8 days by MTT assay
# Type: toxicity, cell-based, HepG2 2.2.15
# measurement_parameters: time 8 day
outcome_measure: CC50 at 192 h

These solved cases illustrate the format of a correct answer.
N#Cc1ccc(Cn2nc(-c3cc(Cl)c(NCCC(=O)O)nc3F)c3ccccc3c2=O)cc1; > 100 µM
C=C1[C@H](CO)[C@@H](O)C[C@@H]1n1cnc2c(=O)[nH]c(N)nc21 [ENTECAVIR ANHYDROUS]; > 1 µM
CC(C)[C@H](N)C(=O)OCCCNc1nc(F)c(-c2nn(Cc3ccc(C#N)cc3)c(=O)c3ccccc23)cc1Cl; 63.1 µM

Return CC50 at 192 h (reported value) for this compound: "N#Cc1ccc(Cn2nc(-c3cc(Cl)c(NCCCO)nc3F)c3ccccc3c2=O)cc1"
> 100 µM
